System: NCI/ADR-RES ovarian
Assay: NCI-60 one-dose screen, 48 h (100 = growth as untreated, 0 = no growth, -100 = all killed)
Conditions: 10 µM unless noted
Method: Growth inhibition of the NCI/ADR-RES human […] tumor cell line is measured as a screen for anti-cancer activity. Cells are grown in 96 well plates and exposed to the test compound for 48 hours. Compounds are tested at a single concentration, which is 10^-5 M for most compounds. The reported endpoint is percent growth (GI% or GIPRCNT), where numbers from 0 - 100% represent growth inhibition, and numbers from -100% - 0 represent cell death. For example, a value of 40 represents 60% growth inhibition. […]
The panel holds about 83,000 compounds, 20% with a hit somewhere; the sample as a whole holds those more often.
measured_endpoint: growth (%)
State just the number; it will be interpreted in %.

Answered examples (5):
[[record]]
molecule = "CC[C@H](C)[C@H](NC(=O)c1cccn1C)C(=O)N(C)[C@H](C[C@@H](OC(C)=O)c1nc(C(=O)N[C@@H](Cc2ccccc2)C[C@H](C)C(=O)OC)cs1)C(C)C"
unit_text = "%"
numeric_readout = 7.66

[[record]]
molecule = "CC[C@H](C)[C@H](NC(=O)[C@H]1CCCCN1C)C(=O)N(C)[C@H](C[C@@H](OC(C)=O)c1cccc(C(=O)N[C@@H](Cc2ccccc2)C[C@H](C)C(=O)O)n1)C(C)C"
unit_text = "%"
numeric_readout = 15.6

[[record]]
molecule = "CC1=C(CN)C2=C(C)C3(CC3)[C@@](C)(O)C(=O)C2=C1"
unit_text = "%"
numeric_readout = 93.8

[[record]]
molecule = "Fc1ccc(C2=CCNCC2)cc1"
unit_text = "%"
numeric_readout = 78.6

[[record]]
molecule = "CC[C@]12C=CCN3CC[C@@]4(c5ccc(OC)cc5N(C)[C@H]4[C@@](O)(C(=O)OC)[C@@H]1OC(=O)CCCC[P+](c1ccccc1)(c1ccccc1)c1ccccc1)[C@@H]32"
unit_text = "%"
numeric_readout = 91.6


The molecule O=[N+]([O-])c1cc([N+](=O)[O-])c(Cl)cc1Cl showed growth equal to -45.1

The molecule COC(=O)[C@@H](C)C[C@H](Cc1ccccc1)NC(=O)c1csc([C@@H](C[C@H](C(C)C)N(C)C(=O)[C@@H](NC(=O)[C@H]2CCCN2C)C2CC2)OC(C)=O)n1 showed growth equal to 12.4

The molecule CCC(CC)CC1(C)CC2(C)CCOC2OO1 (stereo unspecified) showed growth equal to 104

The molecule COc1cc(C=C2c3ccccc3C(=O)c3ccccc32)ccc1OCCCCOc1cc2c(cc1OC)C(=O)N1CCCC1C=N2 (stereo unspecified) showed growth equal to 6.1

The molecule O=C(CC1(O)C(=O)N(Cc2ccccc2)c2ccc(F)cc21)c1ccc(C(=O)NCC2CCC3(CC2)OOC2(CCCCC2)OO3)cc1 (stereo unspecified) showed growth equal to -48.6

The molecule COC1=CC(=O)O[C@@H](/C=C/c2ccc3c(c2)OCO3)C1 showed growth equal to 95.7

The molecule C[C@@H]1C[C@@]2(C)[C@@H](CC[C@@H]3[C@@H]2CC[C@]2(C)C(=O)CC[C@@H]32)CC1=O showed growth equal to 102

The molecule O=C(Nc1ccc(Br)cc1)c1cc(Br)cc(Br)c1O showed growth equal to -6.08
